Source listed as PubChem BioAssay (NCATS).

test: qHTS for Inhibitors of the Functional Ribonucleoprotein Complex (vRNP) of Lassa (LASV) Arenavirus: Viability assay - alamar blue signal for LASV Primary Screen (AID 1347083); conditions: cell viability, alamar blue fluorescence (LASV minigenome counter-screen); series mostly up to 57.5 µM; note: nearly all actives have a fitted effect of over 80% in size
Results filed as inconclusive are left out. Calls of active or inactive are those of the source. Calls come from the whole dose curve; tested in HEK293 reporter line.
// allowed return values: Y = active, N = inactive

| Compound | Category Label |
| --- | --- |
| O=c1[nH]c2ccccc2n1CCCN1CCC(n2c(=O)[nH]c3cc(Cl)ccc32)CC1 | N |
| C[n+]1ccccc1/C=N/O | N |
| COc1cc(NC(C)CCCN)c2ncccc2c1 (stereo not given) | N |
| CCC1=C[C@@H]2CN(C1)Cc1c([nH]c3ccccc13)[C@@](C(=O)OC)(c1cc3c(cc1OC)N(C)[C@H]1[C@@](O)(C(=O)OC)[C@H](OC(C)=O)[C@]4(CC)C=CCN5CC[C@]31[C@@H]54)C2 | N |
| Cc1ccsc1C(=CCCN1CCC[C@@H](C(=O)O)C1)c1sccc1C | N |
| CC[N+](CC)(CC)CC | N |
| CN(N=O)C(=O)N[C@@H]1[C@@H](O)[C@H](O)[C@@H](CO)O[C@@H]1O | N |
| Cc1nccn1CC1CCc2c(c3ccccc3n2C)C1=O (stereo not given) | N |
| COc1ccccc1OCC(O)COC(N)=O (stereo not given) | N |
| N[C@@H]1C[C@H]1c1ccccc1 | N |

Task item: Called result for `CNCCc1ccccn1`
Reply: N

Task item: Called result for `Cc1cn([C@H]2C[C@H](N=[N+]=[N-])[C@@H](CO)O2)c(=O)[nH]c1=O`
Reply: N

Task item: Called result for CC(C)NCC(O)COc1ccc(CCOCC2CC2)cc1 (stereo not given)
Reply: N

Task item: Called result for `CN1CCN(CCCN2c3ccccc3Sc3ccc(C(F)(F)F)cc32)CC1`
Reply: N

Task item: Called result for `CN(C)CCC=C1c2ccccc2C=Cc2ccccc21`
Reply: N

Task item: Called result for `Cc1cc2c(C(C)C)c(O)c(O)c(C=O)c2c(O)c1-c1c(C)cc2c(C(C)C)c(O)c(O)c(C=O)c2c1O`
Reply: Y

Task item: Called result for `CN(C)/N=N/c1nc[nH]c1C(N)=O`
Reply: N

Task item: Called result for `CCCN(CCC)S(=O)(=O)c1ccc(C(=O)O)cc1`
Reply: N

Task item: Called result for `CCOc1ccccc1OCCN[C@H](C)Cc1ccc(OC)c(S(N)(=O)=O)c1`
Reply: N

Task item: Called result for `CN1CCN(C2=Nc3ccccc3Oc3ccc(Cl)cc32)CC1`
Reply: N

Task item: Called result for O=C(NC(O)C(Cl)(Cl)Cl)NC(O)C(Cl)(Cl)Cl (stereo not given)
Reply: N

Task item: Called result for O=C(O)COCCN1CCN(C(c2ccccc2)c2ccc(Cl)cc2)CC1 (stereo not given)
Reply: N

Task item: Called result for `Nc1ccncc1`
Reply: N

###

test: qHTS profiling of the MIPE4 collection as inhibitors of Plasmodium falciparum (DD2) proliferation (AID 743345); conditions: P. falciparum Dd2 in erythrocytes, SYBR Green DNA, 72 h; at 28.5 µM (top of the series) unless noted
Listing of entries alongside the reported parasite growth remaining, % of DMSO control (lower = more inhibition).
Report the value in % with no unit label.

| Compound | Reported Value |
| --- | --- |
| C[C@@H]1O[C@@H](O[C@H]2C[C@@H](O)[C@]3(CO)[C@H]4[C@H](O)C[C@]5(C)[C@@H](C6=CC(=O)OC6)CC[C@]5(O)[C@@H]4CC[C@]3(O)C2)[C@H](O)[C@H](O)[C@H]1O | 95.7 |
| O=C(OC1C[C@H]2CC[C@@H](C1)[N+]21CCCC1)C(O)(c1ccccc1)c1ccccc1 (stereo partly specified) | 48.3 |
| CC(C)C(=O)Nc1ccc([N+](=O)[O-])c(C(F)(F)F)c1 | 91 |
| CC1=C2C[C@@H]3[C@@H](CC=C4C[C@@H](O)CC[C@@]43C)[C@@H]2CC[C@]12O[C@H]1C[C@H](C)CN[C@H]1[C@H]2C | 16.2 |
| Fc1ccc(C(OCCN2CCN(CCCc3ccccc3)CC2)c2ccc(F)cc2)cc1 | 9.78 |
| Cn1c(CCCC(=O)O)nc2cc(N(CCCl)CCCl)ccc21 | 81.5 |
| Cc1cc(SCc2sc(-c3ccc(C(F)(F)F)c(F)c3)nc2C)ccc1OCC(=O)O | 88.1 |
| O=NN(CCCl)C(=O)NCCCl | 102 |

Task item: Read off the recorded parasite growth remaining, % of DMSO control (lower = more inhibition) for CNCC(O)c1ccc(O)cc1 (stereo unspecified)
Reply: 99.8

Task item: Read off the recorded parasite growth remaining, % of DMSO control (lower = more inhibition) for CNC(=O)N1N=C(c2ccc(N)cc2)c2cc3c(cc2CC1C)OCO3 (stereo unspecified)
Reply: 107

Task item: Read off the recorded parasite growth remaining, % of DMSO control (lower = more inhibition) for CC(O)(CS(=O)(=O)c1ccc(F)cc1)C(=O)Nc1ccc(C#N)c(C(F)(F)F)c1 (stereo unspecified)
Reply: 102

Task item: Read off the recorded parasite growth remaining, % of DMSO control (lower = more inhibition) for `COC[C@@H](NC(C)=O)C(=O)NCc1ccccc1`
Reply: 113

Task item: Read off the recorded parasite growth remaining, % of DMSO control (lower = more inhibition) for `O=C1CC[C@@]2(O)[C@H]3Cc4ccc(O)c5c4[C@@]2(CCN3CC2CC2)[C@H]1O5`
Reply: 113

Task item: Read off the recorded parasite growth remaining, % of DMSO control (lower = more inhibition) for `Cc1nc2n(c(=O)c1CCN1CCC(c3noc4cc(F)ccc34)CC1)CCCC2`
Reply: 70.5

Task item: Read off the recorded parasite growth remaining, % of DMSO control (lower = more inhibition) for `Oc1cc(Cl)ccc1Oc1ccc(Cl)cc1Cl`
Reply: 8.79

Task item: Read off the recorded parasite growth remaining, % of DMSO control (lower = more inhibition) for `O=c1[nH]c2ccccc2n1CCCN1CCC(n2c(=O)[nH]c3cc(Cl)ccc32)CC1`
Reply: 52.4

Task item: Read off the recorded parasite growth remaining, % of DMSO control (lower = more inhibition) for `Cn1cc(C2=C(c3cn(C4CCN(Cc5ccccn5)CC4)c4ccccc34)C(=O)NC2=O)c2ccccc21`
Reply: 19.9

Task item: Read off the recorded parasite growth remaining, % of DMSO control (lower = more inhibition) for `O=NN(CCCl)C(=O)NC1CCCCC1`
Reply: 101

Task item: Read off the recorded parasite growth remaining, % of DMSO control (lower = more inhibition) for `CCn1cc(C(=O)O)c(=O)c2cc(F)c(N3CCNCC3)cc21`
Reply: 60.2

Task item: Read off the recorded parasite growth remaining, % of DMSO control (lower = more inhibition) for CC1Cc2ccccc2N1NC(=O)c1ccc(Cl)c(S(N)(=O)=O)c1 (stereo unspecified)
Reply: 34.3
